# Ca ion level-increasing activity (FLIPR) per entry
- target-or-test-system: human OT7T175 (metastin receptor) (human, UniProt Q969F8 1-398)
- Sequence (Q969F8 whole entry L364H): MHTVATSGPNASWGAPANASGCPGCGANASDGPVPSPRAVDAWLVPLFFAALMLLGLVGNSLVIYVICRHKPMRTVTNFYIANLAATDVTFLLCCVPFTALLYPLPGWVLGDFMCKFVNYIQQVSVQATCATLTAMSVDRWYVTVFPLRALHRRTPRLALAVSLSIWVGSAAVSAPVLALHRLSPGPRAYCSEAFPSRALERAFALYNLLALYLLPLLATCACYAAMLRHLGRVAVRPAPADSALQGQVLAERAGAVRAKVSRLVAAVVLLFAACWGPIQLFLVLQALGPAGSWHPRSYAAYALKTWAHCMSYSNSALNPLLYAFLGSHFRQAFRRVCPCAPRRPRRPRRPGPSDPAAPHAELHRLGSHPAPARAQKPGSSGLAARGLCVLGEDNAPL
- measurement-notes: cell-based or functional assay
Non-standard residues stand in square brackets, D forms with d. No end group written: not given here. Phe(3,4-Cl2) = N[C@@H](Cc1ccc(Cl)c(Cl)c1)C(=O)O; Arg(Me) = CNC(=N)NCCC[C@H](N)C(=O)O; Abu = CC[C@H](N)C(=O)O; azaGly = NNC(=O)O

Examples with answers:
>>> result("[dY]NWNAFGL[Arg(Me)]F-NH2 (N-terminus assumed; SMILES CNC(=N)NCCC[C@H](NC(=O)[C@H](CC(C)C)NC(=O)CNC(=O)[C@H](Cc1ccccc1)NC(=O)[C@H](C)NC(=O)[C@H](CC(N)=O)NC(=O)[C@H](Cc1c[nH]c2ccccc12)NC(=O)[C@H](CC(N)=O)NC(=O)[C@H](N)Cc1ccc(O)cc1)C(=O)N[C@@H](Cc1ccccc1)C(N)=O) [[D-Tyr1,Ala5,Arg(Me)9]MS10]")
"10 x Metastin (1-54)"
>>> result("YNWNSFG[Abu]RF-NH2 (N-terminus assumed; SMILES CC[C@H](NC(=O)CNC(=O)[C@H](Cc1ccccc1)NC(=O)[C@H](CO)NC(=O)[C@H](CC(N)=O)NC(=O)[C@H](Cc1c[nH]c2ccccc12)NC(=O)[C@H](CC(N)=O)NC(=O)[C@@H](N)Cc1ccc(O)cc1)C(=O)N[C@@H](CCCNC(=N)N)C(=O)N[C@@H](Cc1ccccc1)C(N)=O, also called Compound No. 187) [[Abu8]MS10]")
"1 x Metastin (1-54)"
>>> result("[dY][dW]NSF[azaGly]L[Arg(Me)]F-NH2 (N-terminus assumed; SMILES CNC(=N)NCCC[C@H](NC(=O)[C@H](CC(C)C)NC(=O)NNC(=O)[C@H](Cc1ccccc1)NC(=O)[C@H](CO)NC(=O)[C@H](CC(N)=O)NC(=O)[C@@H](Cc1c[nH]c2ccccc12)NC(=O)[C@H](N)Cc1ccc(O)cc1)C(=O)N[C@@H](Cc1ccccc1)C(N)=O, also called Compound No. 242) [des(1)-[D-Tyr2,D-Trp3,AzaGly7,Arg(Me)9]MS10]")
"2 x Metastin (1-54)"

For the binder YNWNSFGLR[Phe(3,4-Cl2)]-NH2 (also called Compound No. 199) [[Phe(3,4Cl2)10]MS10] , report Ca ion level-increasing activity (FLIPR).
3 x Metastin (1-54)
